Reported Ki values, Inosine-5'-monophosphate dehydrogenase 1 (Homo sapiens).

{"columns": ["structureSmiles", "Ki"],
 "data": [
  ["COc1cc(NC(=O)NCc2ccc(/C=C/C(=O)NO)cc2)ccc1C#N", "> 100 µM"],
  ["COc1cc(NC(=O)NCc2cccc(/C=C/C(=O)NO)c2)ccc1-c1cnco1", "2.3 µM"],
  ["COc1cc(NC(=O)C(=O)Nc2ccc(/C=C/C(=O)NO)cc2)ccc1-c1cnco1", "7.1 µM"],
  ["COc1cc(NC(=O)Nc2cccc(/C=C/C(=O)NO)c2)ccc1C#N", "8.2 µM"],
  ["COc1cc(NC(=O)NCc2cccc(/C=C/C(=O)NO)c2)ccc1C#N", "44 µM"],
  ["COc1cc(NC(=O)Nc2ccc(/C=C/C(=O)NO)cc2)ccc1C#N", "1.2 µM"]
]}

---

Reported pKi values, Inosine-5'-monophosphate dehydrogenase 2 (Homo sapiens, UniProt P12268).
pKi: −log10 of the molar value.

{"columns": ["structureSmiles", "pKi"],
 "data": [
  ["COc1cc(NC(=O)C(=O)NCc2ccc(/C=C/C(=O)NO)cc2)ccc1-c1cnco1", 5.85],
  ["COc1cc(NC(=O)NCc2cccc(/C=C/C(=O)NO)c2)ccc1C#N", 5.59],
  ["COc1cc(NC(=O)Nc2ccc(/C=C/C(=O)NO)cc2)ccc1C#N", 6.64],
  ["COc1cc(NC(=O)NCc2ccc(/C=C/C(=O)NO)cc2)ccc1-c1cnco1", 5.92]
]}
